target: DLL3 endogenously expressed on NCI-H82 cells (UniProt Q9NYJ7); test: FACS on NCI-H82 cells; antibody 0.032 nM
Sequence (Q9NYJ7 27-618): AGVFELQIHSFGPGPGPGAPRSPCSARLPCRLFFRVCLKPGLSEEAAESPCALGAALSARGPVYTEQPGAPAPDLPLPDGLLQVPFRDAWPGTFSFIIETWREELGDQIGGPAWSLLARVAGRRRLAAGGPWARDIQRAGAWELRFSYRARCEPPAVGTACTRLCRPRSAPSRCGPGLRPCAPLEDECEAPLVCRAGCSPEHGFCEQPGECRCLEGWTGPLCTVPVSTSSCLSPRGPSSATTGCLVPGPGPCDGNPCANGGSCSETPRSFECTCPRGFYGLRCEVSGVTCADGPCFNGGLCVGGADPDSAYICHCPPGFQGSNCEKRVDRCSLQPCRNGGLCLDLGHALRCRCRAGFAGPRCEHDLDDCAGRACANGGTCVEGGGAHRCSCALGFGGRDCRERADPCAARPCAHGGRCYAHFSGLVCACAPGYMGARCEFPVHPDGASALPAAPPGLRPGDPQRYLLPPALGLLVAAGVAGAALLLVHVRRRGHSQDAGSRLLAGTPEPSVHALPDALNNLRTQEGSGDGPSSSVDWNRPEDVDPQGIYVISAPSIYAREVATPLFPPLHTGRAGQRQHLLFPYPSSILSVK
OBSERVATION_TYPE: MFI

binder="mab014 scFv-hFc (Fc fusion, part only; not given: Linker and human IgG1 Fc, not shown: a dimerising Fc or GST) chain, part: DIQMTQSSSSFSVSLGDRVTITCKASEDIYNRLAWYQQKPGNTPRLLISGATSLETGVPSRFSGSGSGKDFTLSITSLQTEDVATYYCQQYWSLPWTFGGGTKLEIKEVQLHQSGPELVKPGTSVKISCKASGYTFTDYYMNWVKQSHGKSLEWIGDINPNHGDTGYNQKFTGKATLTVDKSSSTAYMELRSLTSEDSAVYYCARNFFYYGTTYGWYFDVWGTGTTVTVSS" result=213
binder="Hab008L3H2a-hFc (scFv, part only; not given: VL-VH linker and human IgG1 Fc, V domains shown, not shown: another chain or arm of the molecule; a dimerising Fc or GST; small tags and cut ends) VL: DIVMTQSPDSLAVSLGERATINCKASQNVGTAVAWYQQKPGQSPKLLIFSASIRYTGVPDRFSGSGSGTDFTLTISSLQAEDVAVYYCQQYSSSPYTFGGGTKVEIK VH: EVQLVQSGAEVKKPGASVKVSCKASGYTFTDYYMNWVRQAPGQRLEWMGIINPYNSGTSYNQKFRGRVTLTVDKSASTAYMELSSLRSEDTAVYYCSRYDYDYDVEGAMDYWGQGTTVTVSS" result=90
